molecular target: Bromodomain-containing protein 9 (Homo sapiens, UniProt Q9H8M2); experiment: Bromodomain TR-FRET Competition Binding Assay: A mixture of biotinylated-ligand and SureLight Allophycocyanin-Streptavidin (APC-SA, PerkinElmer AD0201) in 50 mM HEPES (pH 7.4), 50 mM NaCl, 1 mM TCEP (pH 7), 0.01% (v/v) Tween-20, 0.01% (w/v) bovine serum albumin was added to a white 384-well PerkinElmer Proxiplate Plus plate. DMSO or 3-fold serially diluted compounds were then added to the Proxiplate followed by addition of Flag-BRD9. After a 10-minute incubation at room temperature, Eu-W1024 anti-FLAG (PerkinElmer, AD0273) was added. The final reaction miture that contained 3.75 nM biotinylated ligand, 3 nM Flag-BRD9, 7.5 nM SureLight Allophycocyanin-Streptavidin, and 0.2 nM Eu-W1024 anti-FLAG was incubated at room temperature for 90 minutes.
Sequence (Q9H8M2 whole entry): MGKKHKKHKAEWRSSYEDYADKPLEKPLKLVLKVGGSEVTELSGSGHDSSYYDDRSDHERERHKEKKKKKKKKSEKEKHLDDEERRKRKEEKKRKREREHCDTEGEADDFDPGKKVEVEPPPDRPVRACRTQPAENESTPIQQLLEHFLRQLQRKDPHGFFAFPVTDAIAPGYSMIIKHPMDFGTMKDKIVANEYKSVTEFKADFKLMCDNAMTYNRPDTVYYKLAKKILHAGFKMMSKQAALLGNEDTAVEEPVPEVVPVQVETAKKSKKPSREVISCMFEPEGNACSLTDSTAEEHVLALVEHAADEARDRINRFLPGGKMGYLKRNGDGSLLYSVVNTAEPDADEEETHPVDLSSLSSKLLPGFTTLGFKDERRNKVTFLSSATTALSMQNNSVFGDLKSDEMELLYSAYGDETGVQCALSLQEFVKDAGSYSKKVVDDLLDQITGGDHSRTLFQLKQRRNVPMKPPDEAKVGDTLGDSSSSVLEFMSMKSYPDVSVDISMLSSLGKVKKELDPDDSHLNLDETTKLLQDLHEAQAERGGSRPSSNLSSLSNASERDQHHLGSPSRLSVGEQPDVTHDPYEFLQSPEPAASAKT
As shown below, each of these compounds has a reported IC50 value.

COc1cc(-c2cn(C)c(=O)c3cnccc23)cc(OC)c1CN1CC(OCc2cn(CCOc3ccc4c(c3)C(=O)N(C3CCC(=O)NC3=O)C4=O)nn2)C1 (stereo not given)	< 10 nM
COc1cc(-c2cn(C)c(=O)c3cnccc23)cc(OC)c1CN1CCN(C(=O)CCCCOc2cccc3c2C(=O)N(C2CCC(=O)NC2=O)C3=O)CC1 (stereo not given)	< 10 nM
COc1cc(-c2cn(C)c(=O)c3cnccc23)cc(OC)c1CN1CC(S(=O)(=O)NCCCCNc2ccc3c(c2)C(=O)N(C2CCC(=O)NC2=O)C3=O)C1 (stereo not given)	< 10 nM
COc1cc(-c2cn(C)c(=O)c3cnccc23)cc(OC)c1CN1CCCC(OCc2cn(CCCCOc3ccc4c(c3)C(=O)N(C3CCC(=O)NC3=O)C4=O)nn2)C1 (stereo not given)	> 10 nM

As a next step, examine the compound that follows.
Just so you know, measured IC50 for COc1cc(-c2cn(C)c(=O)c3cnccc23)cc(OC)c1CN(C)Cc1cn(-c2ccc3c(c2)C(=O)N(C2CCC(=O)NC2=O)C3=O)nn1 (stereo not given) came out at > 10 nM
